Measured values drawn from ChEMBL document CHEMBL4177524 for this set.

test: AUC (0 to 24 hrs) in beagle dog at 5 mg/kg, po by LC/MS/MS analysis; format: ADME, organism-based, Canis lupus familiaris; set-up: time < 24 hr, dose 5 mg/kg, route oral; details: in vivo
property label: AUC(0-t) at 24 h (ng·h/mL)
Number only, in ng·h/mL; omit the unit.

Sample CCOC(=O)C1=C(CN2CCOCC2)NC(c2nccs2)=NC1c1ccc(F)cc1Br (stereo unspecified) — what was its AUC(0-t) at 24 h?
695

###

test: AUC (0 to 24 hrs) in beagle dog at 15 mg/kg, po for 7 days by LC/MS/MS analysis; type: ADME, organism-based, Canis lupus familiaris; set-up: time < 24 hr, dose 15 mg/kg, route oral; settings: in vivo
property label: AUC at 24 h (ng·h/mL)
Number only, in ng·h/mL; omit the unit.

Sample CCOC(=O)C1=C(CN2CCOCC2)NC(c2nccs2)=NC1c1ccc(F)cc1Br (stereo unspecified) — what was its AUC at 24 h?
2830

###

assay: in vivo; conditions: beagle, dog, po, 45 mg/kg
Description: Half life in beagle dog at 45 mg/kg, po by LC/MS/MS analysis
property label: half-life
Returns: string containing the number followed by the unit.

Sample CCOC(=O)C1=C(CN2CCOCC2)NC(c2nccs2)=NC1c1ccc(F)cc1Br (stereo unspecified) — what was its half-life?
6.29 h

###

assay: in vivo; conditions: beagle, dog, po, 5 mg/kg
property label: bioavailability (%)
Number only, in %; omit the unit.

Sample CCOC(=O)C1=C(CN2CCOCC2)NC(c2nccs2)=NC1c1ccc(F)cc1Br (stereo unspecified) — what was its bioavailability?
15.6

###

system: Hepatitis B virus; experiment: Antiviral activity against telbivudine-resistant wild type hepatitis B virus infected in human Huh7 cells assessed as reduction in secreted DNA levels measured on day 7 by real-time PCR analysis; format: functional, organism-based; conditions: Huh-7, 168 h
property label: EC50 (nM)
Number only, in nM; omit the unit.

Sample Cc1cn([C@@H]2C[C@@H](O)[C@H](CO)O2)c(=O)[nH]c1=O [TELBIVUDINE] — what was its EC50?
569

###

system: Canis familiaris; test: Cmax in beagle dog at 5 mg/kg, po by LC/MS/MS analysis; assay type: ADME, organism-based, Canis lupus familiaris; set-up: dose 5 mg/kg, route oral; settings: in vivo
property label: Cmax (ng/mL)
Number only, in ng/mL; omit the unit.

Give Cmax (Canis familiaris) of the following compound: CCOC(=O)C1=C(CN2CCOCC2)NC(c2nccs2)=NC1c1ccc(F)cc1Br (stereo unspecified)
136

###

test: Toxicity in beagle dog administered via oral gavage for 28 days; assay type: organism-based, Canis lupus familiaris; details: in vivo
property label: NOAEL at 672 h
Returns: string containing the number followed by the unit.

Sample CCOC(=O)C1=C(CN2CCOCC2)NC(c2nccs2)=NC1c1ccc(F)cc1Br (stereo unspecified) — what was its NOAEL at 672 h?
10 mg/kg
